Where do the numbers come from? From patent US10155027B2.

- PROCEDURE_DETAILS: Phase 1 crossover absolute bioavailability, 150 mg oral capsule vs 150 mg IV infusion (Cohort 4)
- Type: in vivo, human
- SETTINGS: human, plasma, iv, 150 mg, 150 mg IV; read-out: Vz (arithmetic mean)
Structures can show the parent of a compound that is named as a salt.
READOUT_KIND: Vd

1. OC[C@H]1NC[C@H](O)[C@@H](O)[C@H]1O [migalastat HCl] ... 59.4 L

====

- PROCEDURE_DETAILS: Phase 1 single ascending dose 2-hour IV infusion PK in healthy subjects (Cohorts 1-3)
- Assay type: in vivo, human
- SETTINGS: human, plasma; 1.0 mg/kg IV; read-out: t½ (arithmetic mean) (converted)
Where a name gives a salt, the structure may show the parent alone.
READOUT_KIND: half-life (h)

1. OC[C@H]1NC[C@H](O)[C@@H](O)[C@H]1O [migalastat HCl] ... 3.21

====

- PROCEDURE_DETAILS: Phase 1 single ascending dose 2-hour IV infusion PK in healthy subjects (Cohorts 1-3)
- Type: in vivo, human
- SETTINGS: human, plasma, iv, 0.3 mg/kg, 0.3 mg/kg IV; read-out: Vss (arithmetic mean)
- Protocol: Healthy volunteers received migalastat HCl (DGJ HCl) via the intravenous (IV) route of administration to evaluate safety, tolerability, and pharmacokinetics. Another study was performed to determine the absolute bioavailability of migalastat after an oral capsule dose as compared to an IV administered dose of migalastat HCl in healthy volunteers. […]
Counter-ions that a name gives are not always drawn.
READOUT_KIND: Vd (L)

1. OC[C@H]1NC[C@H](O)[C@@H](O)[C@H]1O [migalastat HCl] ... 17.9

====

- PROCEDURE_DETAILS: Phase 1 crossover absolute bioavailability, 150 mg oral capsule vs 150 mg IV infusion (Cohort 4)
- Format: in vivo, human
- SETTINGS: human, plasma; 150 mg IV, 2-hour infusion; read-out: Cmax (geometric mean)
Structures can show the parent of a compound that is named as a salt.
READOUT_KIND: Cmax

1. OC[C@H]1NC[C@H](O)[C@@H](O)[C@H]1O [migalastat HCl] ... 3380 ng/mL

====

- PROCEDURE_DETAILS: Phase 1 crossover absolute bioavailability, 150 mg oral capsule vs 150 mg IV infusion (Cohort 4)
- Type: in vivo, human
- SETTINGS: human, plasma; 150 mg oral; read-out: t½ (arithmetic mean) (converted)
Structures can show the parent of a compound that is named as a salt.
READOUT_KIND: half-life (h)

1. OC[C@H]1NC[C@H](O)[C@@H](O)[C@H]1O [migalastat HCl] ... 7.28

====

- PROCEDURE_DETAILS: Phase 1 crossover absolute bioavailability, 150 mg oral capsule vs 150 mg IV infusion (Cohort 4)
- Format: in vivo, human
- SETTINGS: human, plasma; 150 mg IV; read-out: t½ (arithmetic mean) (converted)
Structures can show the parent of a compound that is named as a salt.
READOUT_KIND: half-life (h)

1. OC[C@H]1NC[C@H](O)[C@@H](O)[C@H]1O [migalastat HCl] ... 4.54

====

- PROCEDURE_DETAILS: Phase 1 single ascending dose 2-hour IV infusion PK in healthy subjects (Cohorts 1-3)
- Assay type: in vivo, human
- SETTINGS: human, plasma, iv, 0.3 to 10 mg/kg IV; read-out: Vss, range over doses
Where a name gives a salt, the structure may show the parent alone.
READOUT_KIND: Vd

1. OC[C@H]1NC[C@H](O)[C@@H](O)[C@H]1O [migalastat HCl] ... 17.9 to 27.2 L

====

- PROCEDURE_DETAILS: Phase 1 single ascending dose 2-hour IV infusion PK in healthy subjects (Cohorts 1-3)
- Type: in vivo, human
- SETTINGS: human, plasma; 1.0 mg/kg IV; read-out: AUC0-t (geometric mean)
Where a name gives a salt, the structure may show the parent alone.
READOUT_KIND: AUC(0-t) (ng·h/mL)

1. OC[C@H]1NC[C@H](O)[C@@H](O)[C@H]1O [migalastat HCl] ... 6860

====

- PROCEDURE_DETAILS: Phase 1 single ascending dose 2-hour IV infusion PK in healthy subjects (Cohorts 1-3)
- Format: in vivo, human
- SETTINGS: human, plasma, iv, 1 mg/kg, 1.0 mg/kg IV; read-out: Vss (arithmetic mean)
Structures can show the parent of a compound that is named as a salt.
READOUT_KIND: Vd (L)

1) OC[C@H]1NC[C@H](O)[C@@H](O)[C@H]1O [migalastat HCl] ... 24.2

====

- PROCEDURE_DETAILS: Phase 1 single ascending dose 2-hour IV infusion PK in healthy subjects (Cohorts 1-3)
- Assay type: in vivo, human
- SETTINGS: human, plasma; 0.3 mg/kg IV; read-out: t½ (arithmetic mean) (converted)
Where a name gives a salt, the structure may show the parent alone.
READOUT_KIND: half-life (h)

1. OC[C@H]1NC[C@H](O)[C@@H](O)[C@H]1O [migalastat HCl] ... 2.09

====

- PROCEDURE_DETAILS: Phase 1 single ascending dose 2-hour IV infusion PK in healthy subjects (Cohorts 1-3)
- Type: in vivo, human
- SETTINGS: human, plasma; 1.0 mg/kg IV; read-out: AUC0-∞ (geometric mean)
Where a name gives a salt, the structure may show the parent alone.
READOUT_KIND: AUC(0-inf) (ng·h/mL)

1. OC[C@H]1NC[C@H](O)[C@@H](O)[C@H]1O [migalastat HCl] ... 6920

====

- PROCEDURE_DETAILS: Phase 1 single ascending dose 2-hour IV infusion PK in healthy subjects (Cohorts 1-3)
- Type: in vivo, human
- SETTINGS: human, plasma; 0.3 to 10 mg/kg IV; read-out: arithmetic mean apparent terminal t½, range over doses
Where a name gives a salt, the structure may show the parent alone.
READOUT_KIND: half-life

1. OC[C@H]1NC[C@H](O)[C@@H](O)[C@H]1O [migalastat HCl] ... 2.09 to 10 h

====

- PROCEDURE_DETAILS: Phase 1 crossover absolute bioavailability, 150 mg oral capsule vs 150 mg IV infusion (Cohort 4)
- Type: in vivo, human
- SETTINGS: human, plasma; 150 mg IV; read-out: AUC0-t (geometric mean)
Counter-ions that a name gives are not always drawn.
READOUT_KIND: AUC(0-t)

1) OC[C@H]1NC[C@H](O)[C@@H](O)[C@H]1O [migalastat HCl] ... 13200 ng·h/mL

====

- PROCEDURE_DETAILS: Phase 1 single ascending dose 2-hour IV infusion PK in healthy subjects (Cohorts 1-3)
- Type: in vivo, human
- SETTINGS: human; 10 mg/kg IV, 2-hour infusion; plasma; read-out: Cmax (geometric mean)
Where a name gives a salt, the structure may show the parent alone.
READOUT_KIND: Cmax

1) OC[C@H]1NC[C@H](O)[C@@H](O)[C@H]1O [migalastat HCl] ... 20700 ng/mL

====

- PROCEDURE_DETAILS: Phase 1 single ascending dose 2-hour IV infusion PK in healthy subjects (Cohorts 1-3)
- Assay type: in vivo, human
- SETTINGS: human, plasma; dose levels of 0.3, 1.0, and 10 mg/kg IV; post start of infusion; read-out: median tmax
- Method: Healthy volunteers received migalastat HCl (DGJ HCl) via the intravenous (IV) route of administration to evaluate safety, tolerability, and pharmacokinetics. Another study was performed to determine the absolute bioavailability of migalastat after an oral capsule dose as compared to an IV administered dose of migalastat HCl in healthy volunteers. […]
Where a name gives a salt, the structure may show the parent alone.
READOUT_KIND: Tmax (h)

1. OC[C@H]1NC[C@H](O)[C@@H](O)[C@H]1O [migalastat HCl] ... 1.93

====

- PROCEDURE_DETAILS: Phase 1 single ascending dose 2-hour IV infusion PK in healthy subjects (Cohorts 1-3)
- Assay type: in vivo, human
- SETTINGS: human, plasma; 10 mg/kg IV; read-out: AUC0-t (geometric mean)
Where a name gives a salt, the structure may show the parent alone.
READOUT_KIND: AUC(0-t) (ng·h/mL)

1) OC[C@H]1NC[C@H](O)[C@@H](O)[C@H]1O [migalastat HCl] ... 81100

====

- PROCEDURE_DETAILS: Phase 1 single ascending dose 2-hour IV infusion PK in healthy subjects (Cohorts 1-3)
- Format: in vivo, human
- SETTINGS: human, plasma, iv, 0.3 to 10 mg/kg IV; read-out: arithmetic mean Vz, range over doses
Structures can show the parent of a compound that is named as a salt.
READOUT_KIND: Vd

1) OC[C@H]1NC[C@H](O)[C@@H](O)[C@H]1O [migalastat HCl] ... 19.9 to 107 L

====

- PROCEDURE_DETAILS: Phase 1 single ascending dose 2-hour IV infusion PK in healthy subjects (Cohorts 1-3)
- Assay type: in vivo, human
- SETTINGS: human, plasma; 0.3 to 10 mg/kg IV; read-out: geometric mean AUC0-∞, range over doses
Where a name gives a salt, the structure may show the parent alone.
READOUT_KIND: AUC(0-inf)

1) OC[C@H]1NC[C@H](O)[C@@H](O)[C@H]1O [migalastat HCl] ... 2320 to 81400 ng·h/mL
